Reported IC50 values, M. tuberculosis PanK wild type (Mycobacterium tuberculosis, UniProt P9WPA7).
Give the quantity in µM, number only.

Worked cases, answers included:
>>> print(df.to_string())
                                   molecule  recorded_endpoint  observed
0  COc1ccc(-c2nnc(SCC(=O)Nc3ccc([N+](=O)[O-])cc3)o2)cc1               IC50        40
1  O=C(CN1CCN(Cc2ccccc2)CC1)Nc1ccc([N+](=O)[O-])cc1C(=O)c1ccccc1               IC50       250

As a next step, examine the molecule that follows.
Fill blank: measured IC50 of the molecule c1ccc(-c2csc(Nc3nc4cc5c(cc4s3)OCO5)n2)nc1 [GSK735826A] is ____. 70
